targetOrTestSystem: T1, Human VSIG4-L-Fc (human)
T1 construct: also called hVSIG4-L-Fc; hVSIG4-L
T1 sequence (chain, as listed by the source limits assumed): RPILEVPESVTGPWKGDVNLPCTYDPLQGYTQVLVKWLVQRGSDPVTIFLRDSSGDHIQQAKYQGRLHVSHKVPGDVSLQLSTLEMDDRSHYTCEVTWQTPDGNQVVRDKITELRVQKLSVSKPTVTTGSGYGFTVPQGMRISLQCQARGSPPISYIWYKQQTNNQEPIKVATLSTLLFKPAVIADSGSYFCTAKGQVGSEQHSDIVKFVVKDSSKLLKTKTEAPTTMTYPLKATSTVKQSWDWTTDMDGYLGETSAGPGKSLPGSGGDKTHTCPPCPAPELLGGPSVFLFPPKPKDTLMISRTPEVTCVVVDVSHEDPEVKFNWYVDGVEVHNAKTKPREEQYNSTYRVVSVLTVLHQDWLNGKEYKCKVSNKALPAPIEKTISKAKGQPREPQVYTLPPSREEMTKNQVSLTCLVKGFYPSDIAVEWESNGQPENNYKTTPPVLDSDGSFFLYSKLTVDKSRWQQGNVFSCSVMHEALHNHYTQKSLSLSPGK
assayExplanation: BLI binning on hVSIG4-L-Fc, competitor 15A06 first;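 note: normalized to binding of second antibody without first competitor antibody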
Under this convention, T denotes normalized maximum binding nm shift strictly below 0.8 normalized and F denotes normalized maximum binding nm shift at or above 0.8 normalized.

13H11 mouse/human chimeric IgG4 (S228P) kappa (antibody, V domains shown) VH: QIQLVQSGPELKKPGETVKISCKASGYTFENFGMNWVKQAPGKGLKWMGWINTYTGEATYADDFKGRFAFSLETSASTAYLQINNLKNEDTATYFCARDGGFRHFDVWGAGTTVTVSS VL: ETTVTQSPASLSVATGEKVTIRCITSTDIDDDMNWYQQKPGEPPKLLISEGNTLRPGVPSRFSSSGYGTDFVFTIENMLSEDVADYYCLQSDNLPLTFGAGTKLELKR : T
16E03 mouse/human chimeric IgG4 (S228P) kappa (antibody, V domains shown) VH: QVQLQQSGAELARPGASVKMSCKASGYTFTSYTMHWIKQRPGQGLEWIGYINPSSGHTYYNQKFKDKATLTPDKSSSTAYMQLTSLTSEDSAVYYCARRIPTAYAMDYWGQGTSVTVSS VL: EIQMTQSHKFMSTSVGDRVSITCKASQDVGTAVAWYQQKPGQSPKLLIYWASTRHTGVPDRFTGSGSGTDFTLTISNVQSEDLADYFCQQYSSYPLTFGAGTKLELKR : F
16E10 mouse/human chimeric IgG4 (S228P) kappa (antibody, V domains shown) VH: QVQLQQSGAELVRPGTSVKISCKASGYTFTNYWLGWVKQRPGHGLEWIGDIYPGGGYTNYNEKFKGKATLTADTSSSTAYMQLSSLTSEDSAVYFCAKFYYYGSSYYFDSWGQGTTLTVSS VL: DIVLTQSPSSLSVSAGEKVTLSCKSSQSLLNSGNQENYLAWYQQKPGQPPKLLIYGASTRESGVPDRFTGSGSGTDFTLTISSVQAEDLAVYYCQNDHSYPLTFGAGTKLELKR : T
12A12 mouse/human chimeric IgG4 (S228P) kappa (antibody, V domains shown) VH: QVQMKQSGAELAKPGASVKMSCKASGYTFTNYWMHWVKQRPGQGLEWIGYINPSTGYTDYNQNFKDRATLTADKSSSTAYMQLSSLTSEDSAVYYCIRGSDYYGRDYWGQGTTLTVSS VL: DIQMTQTTSSLSASLGDRVTISCRASQDISNYLNWYQQKPDGTLKLLIYYTSRLHSGVPSRFSGSGSGTDYSLTISNLEQEDIATYFCRQGNTLPWTFGGGTKLEIKR : T

Q. In plain terms, does 15A06 mouse/human chimeric IgG4 (S228P) kappa (antibody, V domains shown) VH: QVQMKQSGPSLVRPSQTLSLTCSVTGDSITSGYWNWIRKFPGDKFEYLGYISYSGFTYYNPSLKSRVSITRDTSKNQYYLQLHSVTTEDTATYYCASSKYGSSLGFPYWGQGTLVTVSA VL: DVVMTQTPLSLPVSLGDQASISCRSSQSLVHSNGNTYLHWYLQKPGQSPKLLIYKVSNRFSGVPDRFSGSGSGTDFTLKISRVEAEDLGVYFCSQSTHVPFTFGSGTKLEIKR come in under 0.8 normalized for normalized maximum binding nm shift?
A. T

Q. In plain terms, does 12A08 mouse/human chimeric IgG4 (S228P) kappa (antibody, V domains shown) VH: EVMLVESGGGLVKPGGSLKLSCAASGFTFDDFYMYWVRQTPEKRLEWVASISDGGTYTYYPDSVKGRFTISRDNAKNTLYLQLSSLKSEDTAMYYCARGVDKYYYAMDYWGQGTSVTVSS VL: QILLTQSPAIMSASPGEKVTITCSASSSVSYMHWFQQKPGTSPKLWIYSTSNLASGVPARFSGSGSGTSYSLTISRMEAEDAATYYCQQRSSYPLTFGAGTKLELKR come in under 0.8 normalized for normalized maximum binding nm shift?
A. T
